- Measured Target: human GPR40 (Homo sapiens)
- Assay Procedure: FDSS-based intracellular calcium assay (Human GRP40 in vitro assay)
- Type: cell-based
- Parameters: 3xFLAG; expressed in transfected cells
- Condition Info: cells expressing GPR40, intracellular Ca2+ response, FDSS reader; read-out: hGPR40 EC50
Where a name gives a salt, the structure may show the parent alone.
Recorded log10(EC50) by entry
Record value = log10 of EC50 given in µM.

What does the data say about its log10(EC50)? Entry: COc1cc(N2CCC(Oc3ccc(N4C[C@H](C)C[C@@H]4CC(=O)O)cn3)C(C)C2)c(Cl)cn1 (stereo partly shown)
-0.66

What does the data say about its log10(EC50)? Entry: COc1ccc(F)c(N2CCC(Oc3ccc(N4CC(F)(F)C[C@@H]4CC(=O)O)cc3)C(C)C2)c1 (single isomer, unassigned) [Example 53, Isomer 2, HCl]
-1.31

What does the data say about its log10(EC50)? Entry: COc1cc(N2CCC(Oc3ccc(N4C[C@H](OC)C[C@@H]4CC(=O)O)cc3)CC2)c2nccn2n1 [Example 86, TFA]
0.67

What does the data say about its log10(EC50)? Entry: COc1ccc(F)c(N2CCC(Oc3ccc(N4C[C@H](Cc5ccccc5)C[C@@H]4CC(=O)O)cc3)CC2)c1 [Example 7, HCl]
-0.49

Further cases:
What does the data say about its log10(EC50)? Entry: COc1ccc(F)c(N2CCC(Oc3ccc(N4C[C@H](C(F)(F)F)C[C@@H]4CC(=O)O)cc3)C2)c1 (single isomer, unassigned) [Example 12, Isomer 1, HCl]
0.45

What does the data say about its log10(EC50)? Entry: CCOc1ccc(F)c(N2CCC(Oc3ccc(N4C[C@H](Oc5ccccn5)C[C@@H]4CC(=O)O)cc3)CC2)c1 [Example 75, TFA]
-0.38

What does the data say about its log10(EC50)? Entry: COc1ccc(F)c(N2CCC(Oc3ccc(N4C[C@H](OC)C[C@@H]4CC(=O)O)cc3)C(C)C2)c1 (single isomer, unassigned) [Example 17, Isomer 2]
-1.19

----------
- Measured Target: human GPR40 (Homo sapiens)
- Assay Procedure: FDSS-based intracellular calcium assay (Human GRP40 in vitro assay)
- Assay type: cell-based
- Set-up: 3xFLAG; expressed in transfected cells
- Condition Info: cells expressing GPR40, intracellular Ca2+ response, FDSS reader; read-out: hGPR40 EC50
Where a name gives a salt, the structure may show the parent alone.
Recorded pEC50 by entry
When answering, recall that pEC50 equals minus log10 of the concentration in mol/L, and write that number alone.

Lab request: please report pEC50 under test system human GPR40 (Homo sapiens) for `CCOc1ccc(F)c(N2CCC(Oc3ccc(N4C[C@H](Oc5cccnc5)C[C@@H]4CC(=O)O)cc3)CC2)c1`
6.07

Further cases:
Lab request: please report pEC50 under test system human GPR40 (Homo sapiens) for CCc1cc(F)c(N2CCC(Oc3ccc(N4C[C@H](OC)C[C@@H]4CC(=O)O)cc3)CC2)cc1OC [Example 29, TFA]
5.96

Lab request: please report pEC50 under test system human GPR40 (Homo sapiens) for `CCOc1ccc(F)c(N2CCC(Oc3ccc(N4C[C@H](Oc5ccc(C)cc5)C[C@@H]4CC(=O)O)cc3)CC2)c1`
5.92

Lab request: please report pEC50 under test system human GPR40 (Homo sapiens) for COc1ccc(F)c(N2CCC(Oc3ccc(N4CCCC4CC(=O)O)cc3)CC2)c1 (single isomer, unassigned) [Example 48, Isomer 2]
5.85

Lab request: please report pEC50 under test system human GPR40 (Homo sapiens) for `CCOc1ccc(F)c(N2CCC(Oc3ccc(N4C[C@H](Oc5ccccc5Cl)C[C@@H]4CC(=O)O)cc3)CC2)c1`
6.13

----------
Recorded EC50 by entry
- Measured Target: human GPR40 (Homo sapiens, UniProt O14842)
- Sequence (O14842 whole entry): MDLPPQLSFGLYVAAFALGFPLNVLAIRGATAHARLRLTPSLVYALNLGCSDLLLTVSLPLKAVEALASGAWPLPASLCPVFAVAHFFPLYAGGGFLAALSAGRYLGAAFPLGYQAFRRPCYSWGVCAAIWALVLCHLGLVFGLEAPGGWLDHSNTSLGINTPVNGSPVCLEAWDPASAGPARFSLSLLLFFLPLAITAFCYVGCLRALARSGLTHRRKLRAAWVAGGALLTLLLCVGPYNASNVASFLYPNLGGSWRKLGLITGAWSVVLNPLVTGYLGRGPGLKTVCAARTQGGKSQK
- Assay Procedure: FDSS-based intracellular calcium assay (Human GRP40 in vitro assay)
- Format: cell-based
- Design: 3xFLAG; expressed in transfected cells
- Condition Info: cells expressing GPR40, intracellular Ca2+ response, FDSS reader; read-out: hGPR40 EC50
Counter-ions that a name gives are not always drawn.
Field format: number, assumed nM, no unit text.

Example cases with answers are listed next.
What does the data say about its EC50? Entry: CCOc1ccc(F)c(N2CCC(Oc3ccc(N4C[C@H](n5cnnn5)C[C@@H]4CC(=O)O)cc3)CC2)c1 [Example 45, HCl]
1900

What does the data say about its EC50? Entry: CCOc1ccc(F)c(N2CCC(Oc3ccc(N4C[C@H](OC)[C@@H](C)[C@@H]4CC(=O)O)cc3)CC2)c1 [Example 121, TFA]
140

Kindly consider the entry below.
What does the data say about its EC50? Entry: COc1ccc(F)c(N2CCC(Cc3ccc(N4C[C@H](C(F)(F)F)C[C@@H]4CC(=O)O)cc3)CC2)c1 [Example 16, HCl]
530

----------
- Measured Target: human GPR40 (Homo sapiens)
- Assay Procedure: FDSS-based intracellular calcium assay (Human GRP40 in vitro assay)
- Type: cell-based
- Design: 3xFLAG; expressed in transfected cells
- Condition Info: cells expressing GPR40, intracellular Ca2+ response, FDSS reader; read-out: hGPR40 EC50
Structures can show the parent of a compound that is named as a salt.
Property Name: EC50 (nM)
Field format: number, assumed nM, no unit text.

Example cases with answers are listed next.
What does the data say about its EC50? Entry: COc1cc(N2CCC(Oc3ccc(N4C[C@H](C(F)(F)F)C[C@@H]4CC(=O)O)c(Cl)c3)C(C)C2)c(Cl)cn1 (stereo partly drawn)
400

What does the data say about its EC50? Entry: COc1cc(N2CCC(Oc3ccc(N4C[C@H](OC)[C@@H](C)[C@@H]4CC(=O)O)cn3)C(C)C2)c(C2CCCC2(C)C)cn1 (single isomer, unassigned) [Example 150, Isomer 1, HCl]
320

What does the data say about its EC50? Entry: CCCCOc1cc(N2C[C@H](OC)[C@@H](C)[C@@H]2CC(=O)O)cnc1OC1CCN(c2cc(OC)ncc2Cl)CC1C (stereo partly drawn)
86

What does the data say about its EC50? Entry: `COc1cc(N2CCC(Oc3ccc(N4C[C@H](OC)[C@@H](C)[C@@H]4CC(=O)O)cc3F)CC2)c(Cl)cn1`
289

What does the data say about its EC50? Entry: COc1cc(N2CCC(Oc3ccc(N4C[C@H](OC)[C@@H](F)[C@@H]4CC(=O)O)cc3)C(C)C2)c(Cl)cn1 (single isomer, unassigned) [Example 147, Isomer 1, HCl]
170

What does the data say about its EC50? Entry: COc1cc(N2CCC(Oc3ccc(N4C[C@H](OC)C[C@@H]4CC(=O)O)cc3)C(C)C2)c(F)cn1 (single isomer, unassigned) [Example 83, Isomer 2]
370

What does the data say about its EC50? Entry: CCOc1ccc(F)c(N2CCC(Oc3ccc(N4C[C@H](OC)[C@@H](C)[C@@H]4CC(=O)O)cn3)C(C)C2)c1 (stereo partly drawn) [Example 117, HCl]
140

What does the data say about its EC50? Entry: COc1cc(N2CCC(Oc3ccc(N4C[C@H](OC)C[C@@H]4CC(=O)O)cc3)C(C)C2)c(Cl)cn1 (single isomer, unassigned) [Example 84, Isomer 1, TFA]
730

Further cases:
What does the data say about its EC50? Entry: COc1cc(N2CCC(Oc3ccc(N4C[C@H](OC)C[C@@H]4CC(=O)O)cc3)CC2)c(Cl)cn1 [Example 87, TFA]
350

What does the data say about its EC50? Entry: `CCOc1ccc(F)c(N2CCC(Oc3ccc(N4C[C@H](Oc5cccc(C)c5)C[C@@H]4CC(=O)O)cc3)CC2)c1`
170

What does the data say about its EC50? Entry: CCCCCO[C@H]1CN(c2ccc(OC3CCN(c4cc(OC)ncc4Cl)CC3C)cc2)[C@@H](CC(=O)O)[C@@H]1C (stereo partly drawn) [Example 162, TFA]
63

What does the data say about its EC50? Entry: COc1ccc(F)c(N2CCC(Oc3ccc(N4C[C@H](OC)C[C@@H]4CC(=O)O)cc3)CC2)c1 [Example 4, HCl]
170
